Provide the reported growth of each item.
Tested on: TK-10 renal
METHOD: NCI-60 one-dose screen, 48 h (100 = growth as untreated, 0 = no growth, -100 = all killed)
MEASUREMENT_SETUP: 10 µM unless noted
The panel holds about 83,000 compounds, 20% with a hit somewhere; the sample as a whole holds those more often.
Kindly answer with a numeric value in %, unit omitted.

Data request, read-out growth, for CCN(CC)c1ccc2c(c1)OC(N)=C(C#N)C2c1cc(OC)c2c(c1)OCO2 (stereo not given)
59.3

Tell me the measured growth of O=C1OCC2=C1C(c1ccccc1)c1cc3c(cc1N2)OCO3 (stereo not given) , please.
56.9

Quick one: growth of CO[C@H](C(=O)O)[C@@H]1Cc2cc3cc(OC4CC(OC5CC(O)C(O)C(C)O5)C(O)C(C)O4)c(C)c(O)c3c(O)c2C(=O)[C@H]1OC1CC(OC2CC(OC3CC(C)(O)C(O)C(C)O3)C(O)C(C)O2)C(O)C(C)O1 (stereo not given in full) ?
24.2

Data request, read-out growth, for Fc1cccc(NCOOC2(OOCNc3cccc(F)c3)CCCCC2)c1
90.8

For the molecule shown here, C=CCCCCCCCCC(=O)[O-].C=CCCCCCCCCC(=O)[O-].[Zn+2] , give the reported growth.
115

Return reported growth; argument: CC(=O)[O][Hg][c]1c(N)c(C)cc(C)c1F
97.4

// query growth value for entry Cc1cc(NC(=O)NCc2ccc(N3C(N)=NC(N)=NC3(C)C)cc2)ccc1S(=O)(=O)F
45.7

If you can, please state the reported growth value of C[C@@]12CC[C@@H](O)C[C@@H]1CC[C@H]1[C@H]2CC[C@@]2(C)[C@H](c3ccc(=O)oc3)CC[C@@]12O .
-81.4

// growth lookup, key: C/C(Cc1ccc(Cl)cc1)=C(\c1ccc(OCCN2CCOCC2)cc1)c1ccc(OC(=O)Cc2ccccc2)cc1
86.7

Would you kindly share the measured growth for CCCCCCCCCCCCNC(c1ccccc1)C(O)c1ccccc1 (stereo not given) ?
98.8

###

Test system: IGROV1 ovarian
METHOD: NCI-60 one-dose screen, 48 h
MEASUREMENT_SETUP: 10 µM unless noted
This is part of a sample that, as a whole, favours compounds with a hit. Of some 83,000 tested, about 20% had one in any assay. Activity calls are given as the source filed them. Rule for the calls: active = growth percent below 10; inactive = the rest.
Permitted responses: yes = active, no = inactive

What call does the record list for CCCCN1CCCC[C@@H]1C(=O)N[C@H](C(=O)N(C)[C@H](C[C@@H](OC(C)=O)c1nc(C(=O)NC2CCC(C(=O)OC)CC2)cs1)C(C)C)C(C)C (some centres undefined) ?
no

What call does the record list for c1cnc2[nH]cc(-c3csc(-c4cn(CCCCN5CCOCC5)c5ccccc45)n3)c2c1 ?
no

Recorded call for Cc1ccccc1NC(=NCCCN1CC1)Nc1ccccc1C ?
no

Dear colleague, could you share the recorded outcome for CS(=O)(=O)CCN1CC2CCCC(C2)C1 when you have a moment?
no

In this assay, the call recorded for COc1cc2c(cc1OCCCCCn1c(-c3ccco3)nc3ccccc31)N=C[C@@H]1CCCN1C2=O was what?
yes

GET /call?item= CCOP(=O)(Cc1ccc(C#N)cc1)OCC returns the recorded outcome of this test.
no

Per the records of this test, what outcome belongs to C=CCCCCCCCCC(=O)[O-].C=CCCCCCCCCC(=O)[O-].[Zn+2] ?
no

Dear colleague, could you share the recorded outcome for O=C1OCCC1Br (centres undefined) when you have a moment?
no

Answer briefly: the call reported for N/C(=N/N=C/c1ccncc1)N[N+](=O)[O-] in this assay.
no

Just curious, what result did O=C([O][Hg][CH2]C1OCCOC1[CH2][Hg][O]C(=O)c1ccccc1)c1ccccc1 (centres undefined) get here?
no

Please let me know the test result on file for O=C(Nc1ccc([As]=[As]c2ccc(NC(=O)c3ccccc3)cc2)cc1)c1ccccc1 (centres undefined) .
yes

Please indicate how the test categorized COc1cc([C@@H]2c3cc4c(cc3[C@H](OC(C)=O)[C@H]3COC(=O)[C@@H]23)OCO4)cc(OC)c1OC .
no

I'd appreciate the recorded outcome for O=[N+]([O-])c1cnc[nH]1 from this test.
no

Field: outcome | Entry: COC(=O)[C@@H](C[C@H](Cc1ccccc1)NC(=O)c1csc([C@@H](C[C@H](C(C)C)N(C)C(=O)[C@@H](NC(=O)[C@H]2CCCCN2C)C(C)C)OC(C)=O)n1)NC(=O)OCc1ccccc1
no

// outcome(item) with item = C[C@@]1(CCCCCCCCCc2ccc(O)cc2)C[C@]2(C)OC(=O)C[C@@H]2OO1
yes

Hello, I am checking results. What call was entered for COC(=O)[C@@H](C)C[C@H](Cc1ccccc1)NC(=O)c1csc([C@@H](C[C@H](C(C)C)N(C)C(=O)[C@H](C)NC(=O)[C@H]2CCCN2C)OC(C)=O)n1 ?
no

Assay outcome for CN(C)CCCOc1ccc2c(c1)c(C(=O)C(=O)NCCO)cn2Cc1ccccc1 : what was it?
no

Recorded test call requested for CN1C(=O)C(=Cc2cn(CCCCCCn3c4ccccc4c(=O)c4ccccc43)c3ccccc23)C(=O)N(C)C1=O
no

For this molecule, state the assay outcome: O=C1C2CC=CCC2C(=O)N1SC(Cl)(Cl)Cl (centres undefined)
no

Sourced from PubChem BioAssay (NCI)
